Hello, the source for this data is paper PMC6562952, in case you need it.

- assay target: Yeast α-glucosidase
- assay details: In vitro α-glucosidase inhibitory activity assay
- test parameters: mean ± SD of triplicate experiments
# reported IC50; entries follow

# molecule, assay target, limit qualifier, IC50 / µM
data = [
    ("C=CC(O)(CCC(C)C1CCC2C3CC=C4CC(O)CCC4(C)C3CCC12C)C(C)C (stereo not drawn) [Compound 4, 24R and 24S-saringosterol]", "Yeast α-glucosidase", ">", 150),
    ("COC(=O)C1OC(OC2CCC3(C)C(CCC4(C)C3C(=O)C=C3C5CC(C)(C(=O)O)CCC5(C)CCC34C)C2(C)C)C(OC2OC(C(=O)O)C(O)C(O)C2O)C(O)C1O (stereo not drawn)", "Yeast α-glucosidase", ">", 150),
    ("CC(=O)C=C=C1C(C)(C)CC(OC(C)=O)CC1(C)O (stereo not drawn)", "Yeast α-glucosidase", ">", 250),
    ("CCC/C=C\\CCCCCCCCCCC(=O)O [Compound 1, (Z)-hexadec-12-enoic acid]", "Yeast α-glucosidase", "=", 48.1),
    ("CCCCCCCCCCCCCCCC(=O)O", "Yeast α-glucosidase", "=", 93.6),
    ("CC1(C)[C@@H](O)CC[C@]2(C)[C@H]3C(=O)C=C4[C@H]5C[C@@](C)(C(=O)O)CC[C@]5(C)CC[C@@]4(C)[C@]3(C)CC[C@@H]12", "Yeast α-glucosidase", "=", 113),
]

---

- assay target: truncated form of human recombinant PTP1B (amino acid 1-322) (Homo sapiens)
- assay details: In vitro PTP1B inhibitory activity assay (pNPP substrate)
- test parameters: read-out: IC50 PTP1B; mean ± SD of triplicate experiments; pNPP substrate
pIC50: −log10 of the molar value.

# molecule, assay target, pIC50
rows = [
    ("CC1(C)CC2CC(C)(O2)/C1=C/C(=O)O (stereo not shown)", "truncated form of human recombinant PTP1B (amino acid 1-322) (Homo sapiens)", "< 3.40"),
]

---

- assay target: truncated form of human recombinant PTP1B (amino acid 1-322) (Homo sapiens, UniProt P18031)
- Sequence (P18031 1-322): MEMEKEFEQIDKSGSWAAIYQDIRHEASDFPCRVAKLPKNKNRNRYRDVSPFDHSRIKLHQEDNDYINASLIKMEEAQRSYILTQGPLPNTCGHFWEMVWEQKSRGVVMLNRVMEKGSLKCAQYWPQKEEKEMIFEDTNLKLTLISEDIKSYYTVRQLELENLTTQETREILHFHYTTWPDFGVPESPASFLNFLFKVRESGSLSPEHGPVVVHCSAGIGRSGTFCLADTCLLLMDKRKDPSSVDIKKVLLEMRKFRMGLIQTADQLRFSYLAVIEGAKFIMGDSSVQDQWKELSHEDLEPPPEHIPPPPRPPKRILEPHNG
- assay details: In vitro PTP1B inhibitory activity assay (pNPP substrate)
- test parameters: IC50 PTP1B, mean ± SD of triplicate experiments; pNPP substrate
readout: IC50

# compound, readout, result
measured = [
    ("CCCC/C=C\\C/C=C\\C/C=C\\CCCCCC(=O)O", "IC50", "13.6 µM"),
    ("OCC1OC(OCc2ccccc2)C(O)C(O)C1O (centres unmarked) [Compound 16, benzyl alcohol alloside]", "IC50", "> 400 µM"),
    ("C=C(COC(=O)CCCCCC(=O)OCC(O)COC(=O)CCC/C=C\\C/C=C\\C/C=C\\CCCCCCCC)C(=O)O (centres unmarked)", "IC50", "4.92 µM"),
    ("CC1(C)[C@@H](O[C@H]2O[C@H](C(=O)O)[C@@H](O)[C@H](O)[C@H]2O[C@@H]2O[C@H](C(=O)O)[C@@H](O)[C@H](O)[C@H]2O)CC[C@]2(C)[C@H]3C(=O)C=C4[C@@H]5C[C@@](C)(C(=O)O)CC[C@]5(C)CC[C@@]4(C)[C@]3(C)CC[C@@H]12", "IC50", "110 µM"),
    ("CCCCCCCC/C=C\\CCCCCCCC(=O)O [Compound 3, (Z)-octaec-9-enoic acid]", "IC50", "13.7 µM"),
    ("CC(=O)C=C=C1C(C)(C)CC(OC(C)=O)CC1(C)O (centres unmarked)", "IC50", "323 µM"),
    ("COc1cc([C@H]2Oc3c(O)cc(CCCO)cc3[C@@H]2CO)ccc1O", "IC50", "174 µM"),
    ("C/C=C(\\CC[C@@H](C)[C@H]1CC[C@H]2[C@@H]3CC=C4C[C@@H](O)CC[C@]4(C)[C@H]3CC[C@]12C)C(C)C", "IC50", "50.6 µM"),
    ("CC/C=C\\C/C=C\\C/C=C\\CCCCCCC(=O)O [Compound 7]", "IC50", "4.86 µM"),
    ("CCCCCC\\C=C/C=C\\C=C/C=C\\CCCCCC(=O)O", "IC50", "10.7 µM"),
    ("CC/C=C\\C/C=C\\C/C=C\\C/C=C\\CCCCC(=O)O", "IC50", "16.4 µM"),
    ("CC/C=C\\C/C=C\\C/C=C\\CCCCCCC(=O)O [Compound 12]", "IC50", "11.5 µM"),
    ("CCCCCCCCCCCCCCCC(=O)O", "IC50", "49.4 µM"),
    ("CCC/C=C\\CCCCCCCCCCC(=O)O [Compound 1, (Z)-hexadec-12-enoic acid]", "IC50", "6.59 µM"),
]

---

# reported pIC50; entries follow
- assay target: Yeast α-glucosidase
- assay details: In vitro α-glucosidase inhibitory activity assay
- test parameters: mean ± SD of triplicate experiments
pIC50: −log10 of the molar value.

# molecule, pIC50
data = [
    ("COc1cc(C(O)C(CO)Oc2ccc(CCCO)cc2O)ccc1O (stereo not shown) [Compound 15]", "< 3.60"),
    ("CC/C=C\\C/C=C\\C/C=C\\CCCCCCC(=O)O [Compound 7]", "< 3.70"),
    ("CC1(C)CC2CC(C)(O2)/C1=C/C(=O)O (stereo not shown) [Compound 17, madhusic acid A]", "< 3.52"),
    ("C=C(COC(=O)CCCCCC(=O)OCC(O)COC(=O)CCC/C=C\\C/C=C\\C/C=C\\CCCCCCCC)C(=O)O (stereo not shown) [Compound 13]", "< 3.82"),
]
